# System: peptide-pulsed T2 cells
# Protocol: Calcein-AM release cytotoxicity assay, peptide-pulsed T2 cells
# Format: cell-based, human
# Condition Set: 20:1 effector:target ratio, 4-hour calcein-AM release, T2 cells pulsed with corresponding peptide, peptide-specific CTLs from healthy female donors
Catalogue of specific cytotoxicity readings, one per entry.
Measured Metric: specific cytotoxicity (%)

{"columns": ["Entry Sequence", "System", "Measured Metric", "Recorded Result"],
 "data": [
  ["PLSDLLLEM [Y537S, ESR1-derived nonameric peptide with Y537S mutation]", "peptide-pulsed T2 cells", "specific cytotoxicity", 30.03],
  ["PLYDLLLEM [Wildtype-2, wild-type ESR1-derived nonameric peptide associated with Y537S and D538G]", "peptide-pulsed T2 cells", "specific cytotoxicity", 13.27],
  ["LLQCAWLEI [E380Q, ESR1-derived nonameric peptide with E380Q mutation]", "peptide-pulsed T2 cells", "specific cytotoxicity", 28.45],
  ["LLECAWLEI [Wildtype-1, wild-type ESR1-derived nonameric peptide associated with E380Q]", "peptide-pulsed T2 cells", "specific cytotoxicity", 25.99],
  ["PLYGLLLEM [D538G, ESR1-derived nonameric peptide with D538G mutation]", "peptide-pulsed T2 cells", "specific cytotoxicity", 30.48]
]}
